Data provenance: patent US20210340217A1

# Subject Of Test: HLA-A*03:01 (Homo sapiens)
# Test Details: MHC binding assay (UV-ligand exchange, beta2m ELISA)
# Applied Conditions: peptide exchange yield
# Source text: Candidate peptides for T cell based therapies according to the present invention were further tested for their MHC binding capacity (affinity). The individual peptide-MHC complexes were produced by UV-ligand exchange, where a UV-sensitive peptide is cleaved upon UV-irradiation, and exchanged with the peptide of interest as analyzed. Only peptide candidates that can effectively bind and stabilize the peptide-receptive MHC molecules prevent dissociation of the MHC complexes. […]
Measured Metric: Peptide exchange

                                  substance     measurement
0  109 (KTFTIKRFLAK; listed as Homo sapiens) [compound 109]  ++ (>20% = ++)
1  259 (KTLELRVAY; listed as Homo sapiens) [compound 259]  ++ (>20% = ++)
2  270 (AVFNPRFYRTY; listed as Homo sapiens) [compound 270]  ++ (>20% = ++)

###

# Subject Of Test: HLA-B*07:02 (Homo sapiens, UniProt P01889)
# Test Details: MHC binding assay (UV-ligand exchange, beta2m ELISA)
# Applied Conditions: peptide exchange yield
Measured Metric: Peptide exchange

The examples below pair each entry with its known result.
>>> print(df.to_string())
                                  substance        measurement
0  333 (FPHSEMTTVM; listed as Homo sapiens) [compound 333]  “+++” (>50 = +++)
1  322 (SPDPSKHLL; listed as Homo sapiens) [compound 322]   “++” (>20% = ++)
2  346 (LPWDTSTTLF; listed as Homo sapiens) [compound 346]  “+++” (>50 = +++)
3  41 (RVRSRISNL; listed as Homo sapiens) [compound 41]  “+++” (>50 = +++)

Would you mind giving Peptide exchange for every substance in the list below?
1. 326 (VPSEIDAAF; listed as Homo sapiens) [compound 326]
2. 32 (SPNKGTLSV; listed as Homo sapiens) [compound 32]
3. 296 (YPLRGSSI; listed as Homo sapiens) [compound 296]
4. 302 (RVEEVRALL; listed as Homo sapiens) [compound 302]
5. 377 (RPRSPAGQVAAA; listed as Homo sapiens) [compound 377]
6. 297 (TVREASGLL; listed as Homo sapiens) [compound 297]
7. 320 (FPMSPVTSV; listed as Homo sapiens) [compound 320]

Ans.
["“++” (>20% = ++)", "“+++” (>50 = +++)", "“++” (>20% = ++)", "“+++” (>50 = +++)", "“+++” (>50 = +++)", "“+++” (>50 = +++)", "“+++” (>50 = +++)"]

Would you mind giving Peptide exchange for every substance in the list below?
1. 321 (SPMDTFLLI; listed as Homo sapiens) [compound 321]
2. 311 (RPLFYVVSL; listed as Homo sapiens) [compound 311]
3. 351 (NVLTSTPAF; listed as Homo sapiens) [compound 351]
4. 128 (YPRTITPGM; listed as Homo sapiens) [compound 128]
5. 125 (VPVYILLDEM; listed as Homo sapiens) [compound 125]
6. 37 (RPLFQKSSM; listed as Homo sapiens) [compound 37]
7. 379 (GPFPLVYVL; listed as Homo sapiens) [compound 379]

Ans.
1: “++” (>20% = ++); 2: “++” (>20% = ++); 3: “++” (>20% = ++); 4: “+++” (>50 = +++); 5: “++” (>20% = ++); 6: “+++” (>50 = +++); 7: “+++” (>50 = +++)

###

# Subject Of Test: HLA-B*07:02 (Homo sapiens)
# Test Details: MHC binding assay (UV-ligand exchange, beta2m ELISA)
# Applied Conditions: peptide exchange yield
Measured Metric: Peptide exchange

The examples below pair each entry with its known result.
                                  substance        measurement
0  348 (MPNSAIPFSM; listed as Homo sapiens) [compound 348]  “+++” (>50 = +++)
1  332 (FPHSEMTTL; listed as Homo sapiens) [compound 332]  “+++” (>50 = +++)
2  139 (SPQSMSNTL; listed as Homo sapiens) [compound 139]  “+++” (>50 = +++)
3  367 (TPSVVTEGF; listed as Homo sapiens) [compound 367]   “++” (>20% = ++)
4  336 (HPKTESATPAAY; listed as Homo sapiens) [compound 336]   “++” (>20% = ++)

Would you mind giving Peptide exchange for every substance in the list below?
1. 148 (KPYGGSGPL; listed as Homo sapiens) [compound 148]
2. 327 (SPLPVTSLI; listed as Homo sapiens) [compound 327]
3. 145 (SPSSPMSTF; listed as Homo sapiens) [compound 145]
4. 126 (KPGPEDKL; listed as Homo sapiens) [compound 126]
5. 132 (IPGPAQSTI; listed as Homo sapiens) [compound 132]
6. 335 (HPDPVGPGL; listed as Homo sapiens) [compound 335]
7. 324 (VPYRVVGL; listed as Homo sapiens) [compound 324]

Ans.
["“+++” (>50 = +++)", "“+++” (>50 = +++)", "“++” (>20% = ++)", "“++” (>20% = ++)", "“++” (>20% = ++)", "“++” (>20% = ++)", "“++” (>20% = ++)"]

Would you mind giving Peptide exchange for every substance in the list below?
1. 134 (RPIVPGPLL; listed as Homo sapiens) [compound 134]
2. 338 (HVTKTQATF; listed as Homo sapiens) [compound 338]
3. 390 (NPDLRRNVL; listed as Homo sapiens) [compound 390]
4. 131 (APTEDLKAL; listed as Homo sapiens) [compound 131]

Ans.
["“+++” (>50 = +++)", "“++” (>20% = ++)", "“+++” (>50 = +++)", "“+++” (>50 = +++)"]

Would you mind giving Peptide exchange for every substance in the list below?
1. 129 (APRPASSL; listed as Homo sapiens) [compound 129]
2. 33 (SPTFHLTL; listed as Homo sapiens) [compound 33]
3. 380 (IPTYGRTF; listed as Homo sapiens) [compound 380]

Ans.
1. “+++” (>50 = +++)
2. “+++” (>50 = +++)
3. “+++” (>50 = +++)

###

# Subject Of Test: HLA-B*44:02 (Homo sapiens, UniProt P01889, A223V/A65T/A93T/A95T/D201E/D98Y/E176V/E187L/E204Q/E69K/G107R/H137Y/K202T/L105A/L119I/N104T/N87E/Q56L/Q94N/R106L/R155S/R180D/S101N/S121R/S35A/S48T/T118I/V36M/W191S/Y140D/Y91S)
# Test Details: MHC binding assay (UV-ligand exchange, beta2m ELISA)
# Applied Conditions: peptide exchange yield
Measured Metric: Peptide exchange

The examples below pair each entry with its known result.
                                  substance        measurement
0  211 (EEKVFPSPLW; listed as Homo sapiens) [compound 211]  “+++” (>50 = +++)
1  406 (EDGRLVIEF; listed as Homo sapiens) [compound 406]     “+” (>10% = +)
2  421 (GEPATTVSL; listed as Homo sapiens) [compound 421]   “++” (>20% = ++)
3  203 (IEHSTQAQDTL; listed as Homo sapiens) [compound 203]   “++” (>20% = ++)

Would you mind giving Peptide exchange for every substance in the list below?
1. 179 (REAGDEFEL; listed as Homo sapiens) [compound 179]
2. 419 (HEFGHVLGL; listed as Homo sapiens) [compound 419]
3. 195 (AEDKRHYSV; listed as Homo sapiens) [compound 195]
4. 422 (SETTFSLIF; listed as Homo sapiens) [compound 422]

Ans.
["“++” (>20% = ++)", "“++” (>20% = ++)", "“++” (>20% = ++)", "“+++” (>50 = +++)"]

Would you mind giving Peptide exchange for every substance in the list below?
1. 396 (REASGLLSL; listed as Homo sapiens) [compound 396]
2. 184 (AELEALTDLW; listed as Homo sapiens) [compound 184]

Ans.
["“+++” (>50 = +++)", "“+++” (>50 = +++)"]

Would you mind giving Peptide exchange for every substance in the list below?
1. 420 (FESHSTVSA; listed as Homo sapiens) [compound 420]
2. 403 (EEAQWVRKY; listed as Homo sapiens) [compound 403]
3. 400 (GEIEIHLL; listed as Homo sapiens) [compound 400]
4. 175 (AEIEPKADG; listed as Homo sapiens) [compound 175]
5. 411 (LELPPILVY; listed as Homo sapiens) [compound 411]
6. 437 (TEAVVTNEL; listed as Homo sapiens) [compound 437]

Ans.
1. “+” (>10% = +)
2. “++” (>20% = ++)
3. “+” (>10% = +)
4. “++” (>20% = ++)
5. “+” (>10% = +)
6. “++” (>20% = ++)

Would you mind giving Peptide exchange for every substance in the list below?
1. 207 (TEARATSDSW; listed as Homo sapiens) [compound 207]
2. 202 (HESEATASW; listed as Homo sapiens) [compound 202]
3. 55 (HETETRTTW; listed as Homo sapiens) [compound 55]
4. 187 (GEAQTRIAW; listed as Homo sapiens) [compound 187]

Ans.
“+++” (>50 = +++)
“+++” (>50 = +++)
“+++” (>50 = +++)
“+++” (>50 = +++)
